Assay: Pharmacokinetics in rats after intravenous and intragastric administration
Details: both, Sprague-Dawley, rat, in vivo, iv, 3.3 mg/kg, AUC(0−t), rats, i.v. 3.3 mg/kg
quantity: AUC(0-t) (µg·h/mL)
Numeric only. Scale: µg·h/mL

[[record]]
structure_as_smiles = "COc1ccc2c3c([nH]c2c1)C(C)=NCC3"
numeric_readout = 0.299


// moving on: another record for AUC(0-t)
Query: Identify measured AUC(0-t) associated with COc1ccc2c(c1)[nH]c1c(C)nccc12
Response: 1.26

----------
Experiment: Bidirectional transport in MDCK cell monolayers with selective transporter inhibitors or substrates
Format: in vitro ADME, canine
Conditions: dog, Control (no inhibitor or substrate), read-out: ER
quantity: efflux ratio at 120 min, 2 μM
Enter a number only.

Query: Identify measured efflux ratio at 120 min, 2 μM associated with COc1ccc2c3c([nH]c2c1)C(C)=NCC3 [Harmaline]
Response: 1.03

----------
Tested on: Na+/K+-ATPase
Test: in vitro
Conditions: human, Caco-2, ER, Caco-2, 2 μM, + Sodium vanadate 0.05 mM (Na^+)
quantity: efflux ratio
Enter a number only.

Query: Please tell me the measured efflux ratio for COc1ccc2c3c([nH]c2c1)C(C)=NCC3 ; system: Na+/K+-ATPase.
Response: 1.27

----------
Assay: Pharmacokinetics in rats after intravenous and intragastric administration
Conditions: both, Sprague-Dawley, rat, in vivo, iv, 3.3 mg/kg, Tmax, rats, i.v. 3.3 mg/kg
quantity: Tmax (min)
Numeric only. Scale: min

[[record]]
structure_as_smiles = "COc1ccc2c3c([nH]c2c1)C(C)=NCC3"
numeric_readout = 1.8


// moving on: another record for Tmax
Query: Identify measured Tmax associated with COc1ccc2c(c1)[nH]c1c(C)nccc12
Response: 1.8

----------
Assay: in vitro
Conditions: dog, MDCK, PappAB, initial concentration 1 μM
quantity: Papp A→B (×10⁻⁶ cm/s)
Numeric only. Scale: ×10⁻⁶ cm/s

[[record]]
structure_as_smiles = "COc1ccc2c3c([nH]c2c1)C(C)=NCC3"
numeric_readout = 15.8


// moving on: another record for Papp A→B
Query: Identify measured Papp A→B associated with COc1ccc2c(c1)[nH]c1c(C)nccc12
Response: 3.7

----------
Catalogue of compounds with associated Papp A→B at 120 min, 2 μM
Tested on: MDR1
Assay: Bidirectional transport in MDCK cell monolayers with selective transporter inhibitors or substrates
Format: in vitro ADME, canine
Settings: dog, with quinidine 0.1 mM (100 μM), + Quinidine 0.1 mM (MDR1)
Numeric only. Scale: ×10⁻⁶ cm/s

[[record]]
compound = "COc1ccc2c3c([nH]c2c1)C(C)=NCC3 [Harmaline]"
result_units = "×10⁻⁶ cm/s"
numeric_readout = 20.1


Query: Identify measured Papp A→B at 120 min, 2 μM associated with COc1ccc2c(c1)[nH]c1c(C)nccc12 [Harmine]
Response: 4.43

----------
System: MDR1
Experiment: Bidirectional transport in MDCK cell monolayers with selective transporter inhibitors or substrates
Format: in vitro ADME, canine
Details: dog, with verapamil 0.1 mM (100 μM), + Verapamil 0.1 mM (MDR1), read-out: ER
quantity: efflux ratio at 120 min, 2 μM
Enter a number only.

Query: Identify measured efflux ratio at 120 min, 2 μM associated with COc1ccc2c3c([nH]c2c1)C(C)=NCC3
Response: 1.05
